target: HLA-A*69:01; assay: IEDB peptide-MHC binding, purified MHC/direct/fluorescence; filed as Kd, often an IC50 or EC50 that approximates it; bounds were set here for any values at or beyond the usual limits of such assays; settings: source organism: Listeria monocytogenes serotype 4b str. H7858
endpoint.name: Kd

Sample AALEGLSGF , system: HLA-A*69:01. Its Kd is ≥ 20 µM

====

target: HLA-B*40:01; assay: IEDB peptide-MHC binding, purified MHC/competitive/radioactivity; filed as Kd, often an IC50 or EC50 that approximates it; bounds were set here for any values at or beyond the usual limits of such assays; conditions: source organism: Mammarenavirus machupoense
endpoint.name: Kd (µM)
Answer format: numeric, µM implied, no suffix.

sequence RECYVQRFYL , Kd observed: 9.01

sequence PEIWLQLNTL , Kd observed: 4.45

====

target: HLA-B*15:17; test: IEDB peptide-MHC binding, purified MHC/direct/fluorescence; filed as Kd, often an IC50 or EC50 that approximates it; bounds were set here for any values at or beyond the usual limits of such assays; details: source organism: Brucella suis 1330
endpoint.name: Kd

Sample MHCDFAFWV , system: HLA-B*15:17. Its Kd is ≥ 20 µM

====

target: HLA-B*15:01; test: IEDB peptide-MHC binding, purified MHC/direct/fluorescence; filed as Kd, often an IC50 or EC50 that approximates it; bounds were set here for any values at or beyond the usual limits of such assays; settings: source organism: Corynebacterium glutamicum
endpoint.name: Kd (µM)
Answer format: numeric, µM implied, no suffix.

Sample ATFSRPGSL , system: HLA-B*15:01. Its Kd is 3.29

====

biological target: HLA-A*26:01; experiment: IEDB peptide-MHC binding, purified MHC/competitive/fluorescence; filed as Kd, often an IC50 or EC50 that approximates it; bounds were set here for any values at or beyond the usual limits of such assays; settings: source organism: Cryptococcus neoformans var. neoformans B-3501A
endpoint.name: Kd

sequence AIDDFCLFA , Kd observed: ≥ 20 µM

====

biological target: HLA-A*02:01; assay: IEDB peptide-MHC binding, purified MHC/direct/fluorescence; filed as Kd, often an IC50 or EC50 that approximates it; bounds were set here for any values at or beyond the usual limits of such assays; details: source organism: Camelpox virus M-96
Provide the recorded Kd for the entries that follow.

Sample SHEQGDIAL , system: HLA-A*02:01. Its Kd is ≥ 20 µM

Sample MTRVTNNVY , system: HLA-A*02:01. Its Kd is ≥ 20 µM

====

biological target: HLA-A*03:01; experiment: IEDB peptide-MHC binding, purified MHC/competitive/radioactivity; filed as Kd, often an IC50 or EC50 that approximates it; bounds were set here for any values at or beyond the usual limits of such assays; details: source organism: Hepatitis C virus (isolate 1)
endpoint.name: pKd
A value of pKd is the negative decimal logarithm of a concentration given in moles per litre.

sequence KLVALGINAV , pKd observed: 4.78

====

target: HLA-B*15:01; experiment: IEDB peptide-MHC binding, purified MHC/direct/fluorescence; filed as Kd, often an IC50 or EC50 that approximates it; bounds were set here for any values at or beyond the usual limits of such assays; conditions: source organism: Influenza A virus (A/quail/Hong Kong/FY298/00(H9N2))
pKd: −log10 of the molar value.
endpoint.name: pKd

sequence TKDAERGKL , pKd observed: ≤ 4.70

====

molecular target: HLA-B*58:01; assay: IEDB peptide-MHC binding, purified MHC/direct/fluorescence; filed as Kd, often an IC50 or EC50 that approximates it; bounds were set here for any values at or beyond the usual limits of such assays; conditions: source organism: Corynebacterium glutamicum
pKd: −log10 of the molar value.
endpoint.name: pKd

sequence ATFSRPGSL , pKd observed: ≤ 4.70

====

biological target: HLA-A*29:02; assay: IEDB peptide-MHC binding, purified MHC/competitive/radioactivity; filed as Kd, often an IC50 or EC50 that approximates it; bounds were set here for any values at or beyond the usual limits of such assays; details: source organism: Vaccinia virus WR
endpoint.name: pKd
A value of pKd is the negative decimal logarithm of a concentration given in moles per litre.

sequence KTSTLIFFV , pKd observed: 5.58

====

biological target: HLA-A*03:01; assay: IEDB peptide-MHC binding, purified MHC/competitive/radioactivity; filed as Kd, often an IC50 or EC50 that approximates it; bounds were set here for any values at or beyond the usual limits of such assays; details: source organism: Vaccinia virus WR
Provide the recorded Kd for the entries that follow.
Answer format: numeric, nM implied, no suffix.

sequence ASITPNNLNK , Kd observed: 1.29

sequence ATIQRFSSLR , Kd observed: 23.4

sequence DVSMMSMYGK , Kd observed: 149

sequence ASMGFKVTTR , Kd observed: 14

sequence IVRTMPNESR , Kd observed: 241

sequence VSMTYLYNK , Kd observed: 72.5

sequence ILGGVLHTK , Kd observed: 1.92

sequence PVLKAMHDKK , Kd observed: 8510

sequence EANASAQTK , Kd observed: 1560

====

molecular target: HLA-A*02:01; experiment: IEDB peptide-MHC binding, purified MHC/competitive/fluorescence; filed as Kd, often an IC50 or EC50 that approximates it; bounds were set here for any values at or beyond the usual limits of such assays; conditions: source organism: Toxoplasma gondii RH
endpoint.name: pKd
A value of pKd is the negative decimal logarithm of a concentration given in moles per litre.

sequence SIFERIREA , pKd observed: 8.70

====

target: HLA-A*03:01; test: IEDB peptide-MHC binding, purified MHC/competitive/fluorescence; filed as Kd, often an IC50 or EC50 that approximates it; bounds were set here for any values at or beyond the usual limits of such assays; conditions: source organism: Escherichia coli str. K-12 substr. W3110
endpoint.name: Kd

Sample IQFDWYPTS , system: HLA-A*03:01. Its Kd is ≥ 20 µM

====

target: HLA-B*08:01; test: IEDB peptide-MHC binding, purified MHC/competitive/fluorescence; bounds were set here for any values at or beyond the usual limits of such assays; conditions: source organism: Vaccinia virus Copenhagen
Provide the recorded IC50 for the entries that follow.

sequence FALKKLIID , IC50 observed: ≥ 211 µM

sequence SLSKRERQL , IC50 observed: ≥ 76.3 µM

====

biological target: HLA-A*30:02; assay: IEDB peptide-MHC binding, purified MHC/competitive/fluorescence; filed as Kd, often an IC50 or EC50 that approximates it; bounds were set here for any values at or beyond the usual limits of such assays; settings: source organism: Entamoeba histolytica HM-1:IMSS
endpoint.name: Kd

sequence NPAACSYMV , Kd observed: ≥ 5 µM

====

target: HLA-B*46:01; test: IEDB peptide-MHC binding, purified MHC/direct/fluorescence; filed as Kd, often an IC50 or EC50 that approximates it; bounds were set here for any values at or beyond the usual limits of such assays; details: source organism: Influenza A virus (A/quail/Hong Kong/FY298/00(H9N2))
endpoint.name: Kd

sequence TKDAERGKL , Kd observed: ≥ 20 µM

====

molecular target: HLA-B*27:03; assay: IEDB peptide-MHC binding, purified MHC/competitive/fluorescence; filed as Kd, often an IC50 or EC50 that approximates it; bounds were set here for any values at or beyond the usual limits of such assays; settings: source organism: Orthohantavirus puumalaense
endpoint.name: Kd

sequence SPVMGVIGF , Kd observed: ≥ 20 µM

====

target: HLA-A*02:01; test: IEDB peptide-MHC binding, purified MHC/competitive/fluorescence; filed as Kd, often an IC50 or EC50 that approximates it; bounds were set here for any values at or beyond the usual limits of such assays; details: source organism: Escherichia coli E22
endpoint.name: Kd (nM)
Answer format: numeric, nM implied, no suffix.

sequence ALSPPLLLL , Kd observed: 157

====

Provide the recorded IC50 for the entries that follow.
biological target: HLA-A*02:01; test: IEDB peptide-MHC binding, purified MHC/competitive/fluorescence; bounds were set here for any values at or beyond the usual limits of such assays; details: source organism: Homo sapiens
Answer format: numeric, nM implied, no suffix.

sequence ALAPAPAEV , IC50 observed: 52

sequence KVADVDLAVPV , IC50 observed: 19.3

====

target: HLA-A*02:03; experiment: IEDB peptide-MHC binding, purified MHC/competitive/radioactivity; filed as Kd, often an IC50 or EC50 that approximates it; bounds were set here for any values at or beyond the usual limits of such assays; settings: source organism: Lymphocytic choriomeningitis virus (strain Armstrong)
endpoint.name: Kd (nM)
Answer format: numeric, nM implied, no suffix.

Sample ALMDCIIFES , system: HLA-A*02:03. Its Kd is 16.4

====

target: HLA-B*35:01; assay: IEDB peptide-MHC binding, purified MHC/competitive/fluorescence; bounds were set here for any values at or beyond the usual limits of such assays; conditions: source organism: Homo sapiens
pIC50: −log10 of the molar value.
Provide the recorded pIC50 for the entries that follow.

sequence GSSDFQVHFLK , pIC50 observed: ≤ 4.70

sequence KVADVDLAVPV , pIC50 observed: ≤ 4.70
